Read-out: Human Leukocyte Antigen - DR isotype (HLADR), HLA-DRA (gene 3122)
Assay: BSK_3C_HLADR: BioMAP Diversity Plus: 3C Assay for Human Leukocyte Antigen - DR isotype (HLADR) Biomarker Activity (AID 2283019)
Details: primary human endothelial cells (HUVEC); actives raise or lower the signal
Activity calls are given as the source filed them. How the source made its calls: active means hit-call score of the fitted dose curve at least 0.9, where 1 is the maximum; inactive means score below 0.9.
Entry note: the call must match one of yes = active, no = inactive

1) CC(C)(c1ccccc1)c1ccc(O)c(C(C)(C)c2ccccc2)c1 = yes

Request: Per the assay record, what outcome was assigned to `COP(=S)(OC)Oc1c(Cl)cc(C)cc1Cl` ?
Response: yes

---

Read-out: Tumor necrosis factor (Homo sapiens) (UniProt P01375)
Sequence (P01375 whole entry, looked up): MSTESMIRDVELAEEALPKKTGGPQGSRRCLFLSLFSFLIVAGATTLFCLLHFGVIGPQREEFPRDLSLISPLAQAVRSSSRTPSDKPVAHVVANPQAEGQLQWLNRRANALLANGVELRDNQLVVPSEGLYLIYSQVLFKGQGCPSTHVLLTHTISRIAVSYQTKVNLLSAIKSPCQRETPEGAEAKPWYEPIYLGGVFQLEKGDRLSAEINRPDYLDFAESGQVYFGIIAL
Assay: BSK_LPS_TNFa: BioMAP Diversity Plus: LPS Assay for Tumour Necrosis Factor alpha (TNFa) Biomarker Activity (AID 2283085)
Settings: primary human HUVEC with PBMC; actives raise or lower the signal
Description: BSK_LPS is a cell-based, multiplexed-readout assay that uses umbilical vein endothelium and peripheral blood mononuclear cells, a human vascular primary cell co-culture, with measurements taken at 24 hours after chemical dosing in a 96-well plate.BSK_LPS_TNFa is an assay component measured in the BSK_LPS assay. It measures TNF-a antibody related to regulation of gene expression using ELISA technology.Data from the assay component BSK_LPS_TNFa was analyzed into 1 assay endpoint. […]
Calls of active or inactive are those of the source. Rule for the calls: active = hit-call score of the fitted dose curve at least 0.9, where 1 is the maximum; inactive = score below 0.9.
Would you mind answering with one of these outcomes? active, inactive

1. COP(=S)(OC)Oc1ccc(S(=O)(=O)N(C)C)cc1 = inactive
2. O=S(=O)(c1ccc(Cl)cc1)c1ccc(Cl)cc1 = inactive
3. CC(=O)C(Cl)C(=O)N(C)C (centres undefined) = active

Request: Recorded test outcome, item `ClC(Cl)=C(Cl)C(Cl)=C(Cl)Cl`
Response: active

Request: For `Nc1ncc([N+](=O)[O-])s1` , which call appears in the assay record?
Response: inactive

Request: Name the outcome recorded for CCOP(=S)(OCC)Oc1ccc(S(C)=O)cc1 (centres undefined) in the assay.
Response: inactive

---

Experiment: ATG_PBREM_CIS: Attagene CIS-FACTORIAL HepG2 Assay for human Phenobarbital-responsive Enhancer Module (PBREM) (AID 2282955)
Details: HepG2 PBREM cis-reporter, Attagene multiplexed transcription; actives raise or lower the signal
Calls of active or inactive are those of the source. Rule for the calls: active = hit-call score of the fitted dose curve at least 0.9, where 1 is the maximum; inactive = score below 0.9.
MEASURED QUANTITY: outcome

1. C=CCc1ccc(OC)cc1 = inactive
2. ClCCBr = inactive
3. CC(C)(C)c1cc(O)ccc1O = inactive
4. C=CC#N = inactive

According to the records, this molecule `CCN1CCC2(CC1)COc1cc3c(cc12)N(C(=O)c1ccc(-c2ccc(-c4nnc(C)o4)cc2C)cc1)CC3` displays outcome of inactive

// outcome value for `CN(CCCC(=O)c1cccnc1)N=O` : inactive

---

# key: entry, value: AC50
Read-out: Vascular cell adhesion molecule 1 (VCAM1), VCAM1 (gene 7412)
Assay: BSK_MyoF_VCAM1: BioMAP Diversity Plus: MyoF Assay for Vascular cell adhesion molecule 1 (VCAM1) Biomarker Activity (AID 2284231)
Details: primary human lung fibroblasts
Activity calls are given as the source filed them. Rule for the calls: active = hit-call score of the fitted dose curve at least 0.9, where 1 is the maximum; inactive = score below 0.9.

1. COP(=S)(OC)Oc1cc(Cl)c(Cl)cc1Cl = 31.1 µM (active)

Memo: `ClC1=C(Cl)[C@]2(Cl)[C@H]3[C@H]([C@H]4C=C[C@H]3C4)[C@@]1(Cl)C2(Cl)Cl` , reported AC50: 3.97 µM (active)
